Where do the numbers come from? From ChEMBL document CHEMBL5678805.

pIC50: −log10 of the molar value.
quantity-measured: pIC50

Query string: Item: O=C(c1ccc(F)c(F)c1Nc1ccc(I)cc1F)N1CC(O)([C@@H]2CCCCN2)C1 [COBIMETINIB] Test system: Protein kinase C gamma type (Homo sapiens) Read-out: pIC50 Value: ?
Result string: < 5.00

====

- target-system: Serine/threonine-protein kinase 10 (Homo sapiens, UniProt O94804)
pIC50: −log10 of the molar value.
quantity-measured: pIC50

Query string: What is its pIC50 for Serine/threonine-protein kinase 10 (Homo sapiens, UniProt O94804)? Entry: O=C(c1ccc(F)c(F)c1Nc1ccc(I)cc1F)N1CC(O)([C@@H]2CCCCN2)C1 [COBIMETINIB]
Result string: < 5.00

====

- target-system: Serine/threonine-protein kinase WNK2 (Homo sapiens)
pIC50: −log10 of the molar value.
quantity-measured: pIC50

Query string: Record lookup: for Serine/threonine-protein kinase WNK2 (Homo sapiens), what pIC50 belongs to O=C(c1ccc(F)c(F)c1Nc1ccc(I)cc1F)N1CC(O)([C@@H]2CCCCN2)C1 [COBIMETINIB] ?
Result string: < 5.00

====

quantity-measured: IC50

Query string: Record `O=C(c1ccc(F)c(F)c1Nc1ccc(I)cc1F)N1CC(O)([C@@H]2CCCCN2)C1` : what is its IC50 with Serine/threonine-protein kinase Nek7 (Homo sapiens, UniProt Q8TDX7)?
Result string: > 10 µM

====

- target-system: Phosphatidylinositol 4,5-bisphosphate 3-kinase catalytic subunit beta isoform (Homo sapiens)
- Sequence (P42338 whole entry, canonical isoform): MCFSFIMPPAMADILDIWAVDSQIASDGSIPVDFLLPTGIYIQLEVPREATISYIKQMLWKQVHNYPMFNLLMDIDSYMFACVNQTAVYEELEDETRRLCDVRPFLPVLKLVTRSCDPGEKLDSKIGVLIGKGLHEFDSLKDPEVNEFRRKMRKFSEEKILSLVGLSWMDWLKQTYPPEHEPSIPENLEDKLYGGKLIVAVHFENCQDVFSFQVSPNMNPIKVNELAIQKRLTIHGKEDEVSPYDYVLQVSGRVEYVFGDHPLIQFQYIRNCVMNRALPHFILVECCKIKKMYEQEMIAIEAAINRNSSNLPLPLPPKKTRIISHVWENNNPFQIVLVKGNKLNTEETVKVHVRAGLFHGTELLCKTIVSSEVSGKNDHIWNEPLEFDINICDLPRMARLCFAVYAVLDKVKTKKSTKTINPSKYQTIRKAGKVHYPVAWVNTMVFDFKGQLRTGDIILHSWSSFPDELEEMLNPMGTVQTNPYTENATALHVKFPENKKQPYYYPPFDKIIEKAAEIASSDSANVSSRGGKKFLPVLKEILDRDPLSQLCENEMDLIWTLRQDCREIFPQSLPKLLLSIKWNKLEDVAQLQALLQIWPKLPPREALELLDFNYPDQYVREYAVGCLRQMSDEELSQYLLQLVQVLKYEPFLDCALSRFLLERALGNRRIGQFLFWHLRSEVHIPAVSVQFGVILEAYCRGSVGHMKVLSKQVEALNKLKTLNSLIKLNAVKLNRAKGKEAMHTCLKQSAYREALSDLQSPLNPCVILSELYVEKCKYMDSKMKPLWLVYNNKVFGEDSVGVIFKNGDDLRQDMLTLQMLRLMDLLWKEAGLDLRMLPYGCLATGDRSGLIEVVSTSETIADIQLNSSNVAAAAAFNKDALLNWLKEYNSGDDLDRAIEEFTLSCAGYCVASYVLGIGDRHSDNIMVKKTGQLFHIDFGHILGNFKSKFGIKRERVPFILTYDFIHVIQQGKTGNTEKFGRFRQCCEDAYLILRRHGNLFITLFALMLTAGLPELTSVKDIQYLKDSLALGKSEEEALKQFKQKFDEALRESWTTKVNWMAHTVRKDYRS
- experimental-details: Inhibition of PI3Kbeta (unknown origin)
pIC50: −log10 of the molar value.
quantity-measured: pIC50

Query string: What measured pIC50 goes with O=C(c1ccc(F)c(F)c1Nc1ccc(I)cc1F)N1CC(O)([C@@H]2CCCCN2)C1 [COBIMETINIB] ?
Result string: < 5.00

====

- target-system: ALK tyrosine kinase receptor (Homo sapiens, UniProt Q9UM73)
quantity-measured: IC50

Query string: Which measured IC50 belongs to `O=C(c1ccc(F)c(F)c1Nc1ccc(I)cc1F)N1CC(O)([C@@H]2CCCCN2)C1` , tested on ALK tyrosine kinase receptor (Homo sapiens, UniProt Q9UM73)?
Result string: > 10 µM

====

quantity-measured: IC50

Query string: Request: IC50, test system Homeodomain-interacting protein kinase 1 (Homo sapiens), entry `O=C(c1ccc(F)c(F)c1Nc1ccc(I)cc1F)N1CC(O)([C@@H]2CCCCN2)C1`
Result string: > 10 µM

====

- target-system: Dual specificity mitogen-activated protein kinase kinase 6 (Homo sapiens)
- experimental-details: Inhibition of MKK6 (unknown origin)
pIC50: −log10 of the molar value.
quantity-measured: pIC50

Query string: Could you share which pIC50 value was measured for `O=C(c1ccc(F)c(F)c1Nc1ccc(I)cc1F)N1CC(O)([C@@H]2CCCCN2)C1` ?
Result string: < 5.00

====

- target-system: Serine/threonine-protein kinase Chk2 (Homo sapiens)
quantity-measured: IC50

Query string: Lab note: need IC50 for `O=C(c1ccc(F)c(F)c1Nc1ccc(I)cc1F)N1CC(O)([C@@H]2CCCCN2)C1` on Serine/threonine-protein kinase Chk2 (Homo sapiens), anyone have it?
Result string: > 10 µM

====

- target-system: Mitogen-activated protein kinase 14 (Homo sapiens)
- Sequence (Q16539 whole entry): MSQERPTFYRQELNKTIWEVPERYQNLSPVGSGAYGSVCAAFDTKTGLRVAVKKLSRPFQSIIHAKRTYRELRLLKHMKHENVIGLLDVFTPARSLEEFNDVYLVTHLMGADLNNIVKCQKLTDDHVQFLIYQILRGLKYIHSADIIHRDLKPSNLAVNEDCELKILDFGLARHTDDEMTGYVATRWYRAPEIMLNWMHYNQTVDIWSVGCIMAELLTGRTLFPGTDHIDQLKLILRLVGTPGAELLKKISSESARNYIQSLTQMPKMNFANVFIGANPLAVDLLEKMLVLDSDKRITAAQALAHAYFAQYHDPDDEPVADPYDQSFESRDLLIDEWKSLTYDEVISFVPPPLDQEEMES
- experimental-details: Inhibition of p38alpha (unknown origin)
quantity-measured: IC50

Query string: Which IC50 value is on record for `O=C(c1ccc(F)c(F)c1Nc1ccc(I)cc1F)N1CC(O)([C@@H]2CCCCN2)C1` ?
Result string: > 10 µM

====

pIC50: −log10 of the molar value.
quantity-measured: pIC50

Query string: Checklist item: pIC50 tested on Ephrin type-A receptor 4 (Homo sapiens), entry O=C(c1ccc(F)c(F)c1Nc1ccc(I)cc1F)N1CC(O)([C@@H]2CCCCN2)C1 [COBIMETINIB] , value?
Result string: < 5.00

====

- target-system: Ribosomal protein S6 kinase beta-1 (Homo sapiens, UniProt P23443)
pIC50: −log10 of the molar value.
quantity-measured: pIC50

Query string: Hello, I am looking for reported pIC50 with Ribosomal protein S6 kinase beta-1 (Homo sapiens, UniProt P23443) for `O=C(c1ccc(F)c(F)c1Nc1ccc(I)cc1F)N1CC(O)([C@@H]2CCCCN2)C1` . Could you help?
Result string: < 5.00

====

- target-system: Calcium/calmodulin-dependent protein kinase type 1 (Homo sapiens)
- experimental-details: Inhibition of CaMK1 (unknown origin)
quantity-measured: IC50

Query string: Bench note: what IC50 did `O=C(c1ccc(F)c(F)c1Nc1ccc(I)cc1F)N1CC(O)([C@@H]2CCCCN2)C1` show?
Result string: > 10 µM

====

- target-system: CDK6/cyclin D3 (Homo sapiens, UniProt Q00534)
- experimental-details: Inhibition of CDK6/cyclinD3 (unknown origin)
pIC50: −log10 of the molar value.
quantity-measured: pIC50

Query string: Data request, read-out pIC50, for `O=C(c1ccc(F)c(F)c1Nc1ccc(I)cc1F)N1CC(O)([C@@H]2CCCCN2)C1`
Result string: < 5.00

====

pIC50: −log10 of the molar value.
quantity-measured: pIC50

Query string: I'm curious: which pIC50 was measured for O=C(c1ccc(F)c(F)c1Nc1ccc(I)cc1F)N1CC(O)([C@@H]2CCCCN2)C1 [COBIMETINIB] tested on UniProtKB P43405?
Result string: < 5.00

====

- target-system: Mitogen-activated protein kinase kinase kinase 9 (Homo sapiens)
- experimental-details: Inhibition of MLK1 (unknown origin)
quantity-measured: IC50

Query string: Find the recorded IC50 belonging to O=C(c1ccc(F)c(F)c1Nc1ccc(I)cc1F)N1CC(O)([C@@H]2CCCCN2)C1 [COBIMETINIB] and report it.
Result string: > 10 µM

====

quantity-measured: IC50

Query string: Lab note: need IC50 with Serine/threonine-protein kinase Sgk1 (Homo sapiens) for entry O=C(c1ccc(F)c(F)c1Nc1ccc(I)cc1F)N1CC(O)([C@@H]2CCCCN2)C1 [COBIMETINIB] , please look it up.
Result string: > 10 µM

====

- target-system: Serine/threonine-protein kinase PAK 4 (Homo sapiens, UniProt O96013)
quantity-measured: IC50

Query string: Enter reported IC50 observed with Serine/threonine-protein kinase PAK 4 (Homo sapiens, UniProt O96013) for `O=C(c1ccc(F)c(F)c1Nc1ccc(I)cc1F)N1CC(O)([C@@H]2CCCCN2)C1`
Result string: > 10 µM

====

- target-system: Glycogen synthase kinase-3 beta (Homo sapiens, UniProt P49841)
pIC50: −log10 of the molar value.
quantity-measured: pIC50

Query string: Given the compound `O=C(c1ccc(F)c(F)c1Nc1ccc(I)cc1F)N1CC(O)([C@@H]2CCCCN2)C1` , what is its reported pIC50?
Result string: < 5.00

====

- target-system: Vascular endothelial growth factor receptor 3 (Homo sapiens, UniProt P35916)
- Sequence (P35916 whole entry): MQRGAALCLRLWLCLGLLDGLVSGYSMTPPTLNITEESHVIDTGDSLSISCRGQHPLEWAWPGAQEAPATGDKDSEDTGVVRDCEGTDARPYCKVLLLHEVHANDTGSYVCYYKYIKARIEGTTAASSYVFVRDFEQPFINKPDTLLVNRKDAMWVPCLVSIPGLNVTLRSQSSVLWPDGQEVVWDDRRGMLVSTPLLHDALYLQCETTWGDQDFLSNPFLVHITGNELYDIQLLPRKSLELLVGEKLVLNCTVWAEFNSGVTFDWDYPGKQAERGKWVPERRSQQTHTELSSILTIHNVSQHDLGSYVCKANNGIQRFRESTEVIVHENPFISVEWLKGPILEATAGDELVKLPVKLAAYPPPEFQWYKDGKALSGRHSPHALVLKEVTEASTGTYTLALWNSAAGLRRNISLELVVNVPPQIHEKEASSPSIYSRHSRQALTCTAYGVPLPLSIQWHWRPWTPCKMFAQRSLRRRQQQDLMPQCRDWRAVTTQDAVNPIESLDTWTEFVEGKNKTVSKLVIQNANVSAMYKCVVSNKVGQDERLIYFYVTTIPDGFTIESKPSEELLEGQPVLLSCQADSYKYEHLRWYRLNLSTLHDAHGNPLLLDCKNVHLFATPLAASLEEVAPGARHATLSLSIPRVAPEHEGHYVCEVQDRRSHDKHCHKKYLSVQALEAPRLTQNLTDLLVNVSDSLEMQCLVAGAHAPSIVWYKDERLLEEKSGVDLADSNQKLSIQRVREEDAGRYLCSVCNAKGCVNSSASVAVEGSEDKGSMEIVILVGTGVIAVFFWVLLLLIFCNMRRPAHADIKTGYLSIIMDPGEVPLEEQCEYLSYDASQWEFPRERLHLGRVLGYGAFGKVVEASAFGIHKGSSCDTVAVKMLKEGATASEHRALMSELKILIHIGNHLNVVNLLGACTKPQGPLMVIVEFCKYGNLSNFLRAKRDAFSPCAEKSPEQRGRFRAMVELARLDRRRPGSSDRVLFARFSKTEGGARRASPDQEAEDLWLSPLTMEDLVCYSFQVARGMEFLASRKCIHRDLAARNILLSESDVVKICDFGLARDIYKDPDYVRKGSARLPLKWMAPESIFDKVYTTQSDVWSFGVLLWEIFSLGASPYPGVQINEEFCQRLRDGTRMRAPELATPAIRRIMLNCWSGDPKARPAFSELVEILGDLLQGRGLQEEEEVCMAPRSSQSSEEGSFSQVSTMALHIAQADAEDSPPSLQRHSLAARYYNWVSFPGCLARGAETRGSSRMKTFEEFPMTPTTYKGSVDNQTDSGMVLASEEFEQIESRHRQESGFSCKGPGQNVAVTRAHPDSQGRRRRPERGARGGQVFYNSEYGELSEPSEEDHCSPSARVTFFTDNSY
pIC50: −log10 of the molar value.
quantity-measured: pIC50

Query string: Dear colleague, I am looking for the recorded pIC50 of the following molecule: O=C(c1ccc(F)c(F)c1Nc1ccc(I)cc1F)N1CC(O)([C@@H]2CCCCN2)C1 [COBIMETINIB]
Result string: < 5.00

====

quantity-measured: IC50

Query string: # returns recorded IC50 (system: Interleukin-1 receptor-associated kinase 1 (Homo sapiens)) for O=C(c1ccc(F)c(F)c1Nc1ccc(I)cc1F)N1CC(O)([C@@H]2CCCCN2)C1 [COBIMETINIB]
Result string: > 10 µM

====

pIC50: −log10 of the molar value.
quantity-measured: pIC50

Query string: Form: Entry = `O=C(c1ccc(F)c(F)c1Nc1ccc(I)cc1F)N1CC(O)([C@@H]2CCCCN2)C1` | System = UniProtKB O14965 | pIC50 = ____
Result string: < 5.00

====

- target-system: Death-associated protein kinase 1 (Homo sapiens, UniProt P53355)
- Sequence (P53355 whole entry): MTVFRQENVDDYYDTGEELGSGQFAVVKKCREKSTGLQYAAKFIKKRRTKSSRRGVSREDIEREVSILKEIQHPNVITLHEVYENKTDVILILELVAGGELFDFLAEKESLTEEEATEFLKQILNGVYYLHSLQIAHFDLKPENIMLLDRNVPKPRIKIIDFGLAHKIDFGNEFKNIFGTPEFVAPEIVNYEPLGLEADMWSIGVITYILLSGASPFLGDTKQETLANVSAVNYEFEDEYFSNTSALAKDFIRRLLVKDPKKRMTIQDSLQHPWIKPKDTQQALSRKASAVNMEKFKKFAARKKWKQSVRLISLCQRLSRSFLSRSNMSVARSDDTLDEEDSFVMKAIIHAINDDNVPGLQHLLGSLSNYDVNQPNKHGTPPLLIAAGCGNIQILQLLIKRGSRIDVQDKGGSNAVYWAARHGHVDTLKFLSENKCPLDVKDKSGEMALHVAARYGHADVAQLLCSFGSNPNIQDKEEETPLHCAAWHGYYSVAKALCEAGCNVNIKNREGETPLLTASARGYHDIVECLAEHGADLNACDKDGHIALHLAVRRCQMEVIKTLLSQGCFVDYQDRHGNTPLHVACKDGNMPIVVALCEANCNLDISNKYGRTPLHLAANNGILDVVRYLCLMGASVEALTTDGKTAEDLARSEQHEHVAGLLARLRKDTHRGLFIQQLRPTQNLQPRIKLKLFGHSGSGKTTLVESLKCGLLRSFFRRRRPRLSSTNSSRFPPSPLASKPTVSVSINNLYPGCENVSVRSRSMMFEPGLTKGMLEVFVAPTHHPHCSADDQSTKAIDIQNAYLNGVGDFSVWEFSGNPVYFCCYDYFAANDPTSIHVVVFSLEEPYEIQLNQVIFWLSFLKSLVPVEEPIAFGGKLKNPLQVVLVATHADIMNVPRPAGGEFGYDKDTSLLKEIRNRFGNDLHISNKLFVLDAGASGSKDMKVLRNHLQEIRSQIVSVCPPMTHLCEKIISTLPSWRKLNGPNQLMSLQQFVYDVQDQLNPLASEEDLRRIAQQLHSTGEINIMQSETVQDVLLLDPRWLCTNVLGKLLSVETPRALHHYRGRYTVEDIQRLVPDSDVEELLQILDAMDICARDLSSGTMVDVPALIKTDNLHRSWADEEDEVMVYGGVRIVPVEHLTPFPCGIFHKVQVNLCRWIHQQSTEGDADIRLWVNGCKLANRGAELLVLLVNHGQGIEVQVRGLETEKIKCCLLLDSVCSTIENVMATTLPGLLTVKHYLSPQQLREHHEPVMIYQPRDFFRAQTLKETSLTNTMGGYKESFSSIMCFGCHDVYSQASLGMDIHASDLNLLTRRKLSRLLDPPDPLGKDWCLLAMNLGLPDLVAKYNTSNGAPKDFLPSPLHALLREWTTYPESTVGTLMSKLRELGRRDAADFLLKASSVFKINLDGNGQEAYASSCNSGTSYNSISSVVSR
quantity-measured: IC50

Query string: # query: IC50 of entry `O=C(c1ccc(F)c(F)c1Nc1ccc(I)cc1F)N1CC(O)([C@@H]2CCCCN2)C1`
Result string: > 10 µM

====

- target-system: Serine/threonine-protein kinase B-raf (Homo sapiens, UniProt P15056, V600E)
- experimental-details: Inhibition of B-RAF V600E (unknown origin)
quantity-measured: IC50

Query string: Quick one: IC50 of `O=C(c1ccc(F)c(F)c1Nc1ccc(I)cc1F)N1CC(O)([C@@H]2CCCCN2)C1` ?
Result string: > 10 µM

====

- target-system: Epidermal growth factor receptor (Homo sapiens)
quantity-measured: IC50

Query string: // IC50 lookup, key: `O=C(c1ccc(F)c(F)c1Nc1ccc(I)cc1F)N1CC(O)([C@@H]2CCCCN2)C1`
Result string: > 10 µM

====

pIC50: −log10 of the molar value.
quantity-measured: pIC50

Query string: Tell me reported pIC50 for `O=C(c1ccc(F)c(F)c1Nc1ccc(I)cc1F)N1CC(O)([C@@H]2CCCCN2)C1` , tested with Serine/threonine-protein kinase MARK2 (Homo sapiens).
Sequence (Q7KZI7 whole entry): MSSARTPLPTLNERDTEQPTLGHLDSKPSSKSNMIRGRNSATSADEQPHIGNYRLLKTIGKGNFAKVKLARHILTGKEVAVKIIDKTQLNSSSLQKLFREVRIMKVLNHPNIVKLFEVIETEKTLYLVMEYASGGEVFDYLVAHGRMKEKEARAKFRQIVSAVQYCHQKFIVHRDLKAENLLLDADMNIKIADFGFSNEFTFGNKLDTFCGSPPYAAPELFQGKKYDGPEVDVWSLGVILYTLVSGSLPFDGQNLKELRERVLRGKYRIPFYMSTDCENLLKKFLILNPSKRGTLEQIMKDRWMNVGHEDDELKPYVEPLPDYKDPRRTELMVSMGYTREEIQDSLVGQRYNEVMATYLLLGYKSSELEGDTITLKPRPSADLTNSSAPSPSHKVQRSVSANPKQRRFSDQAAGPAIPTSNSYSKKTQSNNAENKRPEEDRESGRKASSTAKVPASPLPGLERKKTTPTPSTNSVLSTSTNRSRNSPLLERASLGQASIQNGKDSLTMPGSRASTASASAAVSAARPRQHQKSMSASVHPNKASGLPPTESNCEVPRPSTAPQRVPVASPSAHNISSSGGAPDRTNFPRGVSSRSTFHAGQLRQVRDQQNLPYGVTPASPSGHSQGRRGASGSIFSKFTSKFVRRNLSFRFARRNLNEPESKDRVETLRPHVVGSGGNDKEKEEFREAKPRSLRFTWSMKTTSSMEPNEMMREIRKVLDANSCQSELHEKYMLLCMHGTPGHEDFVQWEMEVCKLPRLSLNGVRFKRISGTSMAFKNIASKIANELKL
Result string: < 5.00

====

- target-system: Platelet-derived growth factor receptor beta (Homo sapiens, UniProt P09619)
- experimental-details: Inhibition of PDGFR beta (unknown origin)
quantity-measured: IC50

Query string: What measured IC50 goes with O=C(c1ccc(F)c(F)c1Nc1ccc(I)cc1F)N1CC(O)([C@@H]2CCCCN2)C1 [COBIMETINIB] ?
Result string: > 10 µM
